Where a name gives a salt, the structure may show the parent alone.
READOUT_LABEL: melting point

Examples with answers:
[[record]]
molecule = "CN(C)c1c(-c2ccc(C3(N)CCCC3)cc2)ccc2[nH]ncc12 (as salt: hydrochloride) [Compound 5-24, trihydrochloride]"
result_value = "175 to 178 °C (dec.)"

[[record]]
molecule = "CC(C)(N)c1ccc(-c2ccc3[nH]ncc3c2N2CCOCC2)cc1 (as salt: hydrochloride) [Compound 5-43, trihydrochloride]"
result_value = "268 to 272 °C (dec.)"


Now for the molecule whose melting point we want.
Query string: Which melting point value is on record for CC(C)(N)c1ccc(-c2ccc3[nH]ncc3c2NCc2ccccc2)cc1 (as salt: hydrochloride) [Compound 5-6, dihydrochloride] ?
Result string: 185 to 192 °C (dec.)
